Tested on: CP201
method_description: qHTS profiling for inhibitors of Plasmodium falciparum proliferation (AID 504749); also: nearly all actives have a fitted effect of over 60% in size
particulars: P. falciparum in erythrocytes, SYBR Green DNA, 72 h; series mostly up to 28.7 µM
Records with an inconclusive call do not appear. The source made the active and inactive calls. Calls follow the shape of the dose curve; as a rule, active = well fitted inhibition curve with a large enough effect; inconclusive = small, poorly fitted or top-dose-only effect; inactive = flat fitted curve, though single readings scatter.
Labels: active, inactive

compound	system_name	class_assignment
COc1ccc2c(c1OC)C(=O)OC2[C@H]1c2c(cc3c(c2OC)OCO3)CCN1C (some centres undefined)	CP201	inactive
CCCCCCCCCCCC(CC1OC(=O)C1CCCCCC)OC(=O)C(CC(C)C)NC=O (centres undefined)	CP201	inactive
COc1cccc2c1C(=O)c1c(O)c3c(c(O)c1C2=O)C[C@@](O)(C(=O)CO)C[C@@H]3O[C@H]1C[C@H](N)[C@H](OC2CCCCO2)[C@H](C)O1 (some centres undefined)	CP201	active
Nc1nc2c(c(=O)[nH]1)N(C=O)[C@H](CNc1ccc(C(=O)N[C@@H](CCC(=O)O)C(=O)O)cc1)CN2	CP201	inactive
